Where these numbers come from: PubChem BioAssay (NCI)

Test system: HS 578T breast
experiment-description: NCI tumour cell line growth inhibition, 48 h
value-type: GI50

Record excerpt, results attached:
CC(=O)O[C@H]([C@H](OC(C)=O)[C@H](C)OC(C)=O)[C@@H](/C=C/[C@H]1CC=CC(=O)O1)OC(C)=O; 65500 nM
O=C1c2ccccc2-c2c1c1c(O)cccc1n2Cc1ccccc1; 10300 nM
CN(C)CCCC1(c2ccc(F)cc2)OCc2cc(-c3csc4ccccc34)ccc21 (stereo not drawn); 1740 nM
O=c1c(Oc2ccc(F)cc2F)cc2cnc(NC3CCOCC3)nc2n1C1CC1; > 16900 nM
C#CCCCCCC(=O)N[C@H]1C=C[C@@H]2/C=C(C)/C=C/[C@@H](C)[C@H]([C@H](C)[C@H](O)[C@@H](C)NC(C)=O)OC(=O)/C=C/C=C(C)\C=C\[C@]2(C)C1; 4.22 nM
Nc1cc(C(F)(F)F)c(-c2nc(N3CCOCC3)nc(N3CCOCC3)n2)cn1; 231 nM
C/C(=C\c1csc(C)n1)[C@@H]1C[C@@H]2O[C@]2(C)CCC[C@H](C)[C@H](O)[C@@H](C)C(=O)C(C)(C)[C@@H](O)CC(=O)N1; 0.0861 nM

Consider the additional molecule presented here.
Query :: Which value of GI50 has been reported for Cc1cccc(Oc2ccc(Nc3ncnc4ccc(NC(=O)CN(C)C)cc34)cc2Cl)c1 in the records?
Result :: 1810 nM
